Listed here: items and their measured Population Pyknosed Nuclei (%).
# Tested on: U2OS
# Assay: Multiplex assay against U2OS
# Assay type: toxicity, cell-based
# Condition info: human, 12 h, 1 µM, compound concentration 1 uM, replicate 1
Entry rule: numbers only, all in %.

Solved cases below.
Compound	Property label	Experimental result
N[C@@]1(C(=O)O)CO[C@H]2[C@H](C(=O)O)[C@H]21 [LY-379268]	Population Pyknosed Nuclei (%)	3
Oc1c(CN2CCN(c3ccccn3)CC2)cc(Cl)c2cccnc12	Population Pyknosed Nuclei (%)	10
CNC[C@H](O)c1ccc(O)c(O)c1 [EPINEPHRINE]	Population Pyknosed Nuclei (%)	7

Challenge: Name the reported Population Pyknosed Nuclei (%) value associated with the compound Cc1ccc(-c2ccc(F)cc2COc2ccc(CCC(=O)O)cc2)cc1
Response given: 5

Challenge: Name the reported Population Pyknosed Nuclei (%) value associated with the compound C[C@H]1[C@H]2CC[C@H]3[C@@H]4CC=C5C[C@@H](N(C)C)CC[C@]5(C)[C@H]4CC[C@]23CN1C [CONESSINE]
Response given: 6

###

Listed here: items and their measured Population Mitotic Cells (%).
# Tested on: U2OS
# Assay: Multiplex assay against U2OS
# Assay type: toxicity, cell-based
# Condition info: human, 24 h, 1 µM, compound concentration 1 uM, replicate 1
Entry rule: numbers only, all in %.

Solved cases below.
Compound	Unit abbrev	Population Mitotic Cells (%)
C[C@@H]1C[C@H]2[C@@H]3CCC4=CC(=O)C=C[C@]4(C)[C@@]3(F)[C@@H](O)C[C@]2(C)[C@@]1(O)C(=O)CO	%	4
C[C@H]1[C@H]2CC[C@H]3[C@@H]4CC=C5C[C@@H](N(C)C)CC[C@]5(C)[C@H]4CC[C@]23CN1C	%	9

Challenge: Name the reported Population Mitotic Cells (%) value associated with the compound COc1cc(NC(=O)CCN2CCC(OC(=O)Nc3ccccc3-c3ccccc3)CC2)c(Cl)cc1CNC[C@H](O)c1ccc(O)c2[nH]c(=O)ccc12
Response given: 25

Challenge: Name the reported Population Mitotic Cells (%) value associated with the compound CCCN1CCC[C@@H]2Cc3n[nH]cc3C[C@H]21.Cl [QUINPIROLE HYDROCHLORIDE]
Response given: 31

Challenge: Name the reported Population Mitotic Cells (%) value associated with the compound N#Cc1c(N)nc(SCc2csc(-c3ccc(Cl)cc3)n2)c(C#N)c1-c1ccc(OCCO)cc1
Response given: 12

Challenge: Name the reported Population Mitotic Cells (%) value associated with the compound Cc1ccc(F)cc1C(=O)Nc1ccc(C(=O)N2Cc3cccn3Cc3ccccc32)c(Cl)c1
Response given: 13

Challenge: Name the reported Population Mitotic Cells (%) value associated with the compound C[C@H](NC(=O)c1c(C(F)F)nn(C)c1Oc1cccc(C(F)(F)F)c1)c1ccc(C(=O)O)cc1
Response given: 12

Challenge: Name the reported Population Mitotic Cells (%) value associated with the compound O=C(O)Cc1ccccc1Nc1c(Cl)cccc1Cl
Response given: 7

Challenge: Name the reported Population Mitotic Cells (%) value associated with the compound CC(=O)NCCc1c(Cc2ccccc2)[nH]c2ccccc12
Response given: 10

Challenge: Name the reported Population Mitotic Cells (%) value associated with the compound CSc1ccccc1N1CCN(CCCCCC(=O)NC2CCCc3ccccc32)CC1.Cl (stereo not drawn)
Response given: 45

Challenge: Name the reported Population Mitotic Cells (%) value associated with the compound CC1(COc2ccc3c(c2)ncn3-c2ccc3cccc(N4CCC(N)CC4)c3n2)COC1
Response given: 28

Challenge: Name the reported Population Mitotic Cells (%) value associated with the compound O=C(NCC(=O)N1CC[C@H](N[C@H]2CC[C@@](O)(c3ccc(-c4ncccn4)cn3)CC2)C1)c1cccc(C(F)(F)F)c1
Response given: 20

Challenge: Name the reported Population Mitotic Cells (%) value associated with the compound CSCC[C@H](NC=O)C(=O)N[C@@H](CC(C)C)C(=O)N[C@@H](Cc1ccccc1)C(=O)O
Response given: 8
